FYI, the data here is from ChEMBL document CHEMBL1201862.

Tested on: EKVX
Experiment: NCI tumour cell line growth inhibition, 48 h
Active and inactive are the calls of the source. No stated cut-off is given here; in the data, active = GI50 up to about 1.1 µM and inactive = higher.
MEASUREMENT_KIND: GI50

> print(dat)
                                   molecule  measurement.kind      reported.result
1  Cc1cc(N(CCC#N)CCC#N)ccc1C(=N/NC(=O)c1cc(Cl)ccc1O)/N=N/c1cccc([N+](=O)[O-])c1              GI50   25.1 µM (inactive)
2  CC(=O)c1[nH]c(NC(C)C)c(C(=S)Nc2ccccc2)c1N              GI50     37 µM (inactive)
3  O=C([C@H](O)[C@@H](O)c1ccc(Br)cc1)C12CC3CC(CC(C3)C1)C2              GI50   32.4 µM (inactive)
4    CCc1cccc(C)c1NC(=O)C(=O)Cc1nc2ccccc2o1              GI50  > 100 µM (inactive)
5     [N-]=[N+]=Nc1ncnc2c1sc(=S)n2-c1ccccc1              GI50  > 100 µM (inactive)

Go through the list and state GI50 for each entry.
1. N#Cc1ccc(/C=[N+](/C=c2ccc(=C=[N-])cc2)N(CCO)C2=NCCN2)cc1
2. CS(=N)(=O)CCC(N)P(=O)(O)O (stereo not given)
3. CN(C)CC/C(=N\Nc1ccc(Cl)cc1Cl)c1ccccc1
4. CN1CCc2cc(N)cc3c2C1Cc1ccc(O)c(O)c1-3 (stereo not given)
5. COc1ccc(/N=C(Nc2ccc(OC)cc2)/C(=N/c2ccc(OC)cc2)Nc2ccc(OC)cc2)cc1

output:
> 100 µM (inactive)
> 100 µM (inactive)
20.6 µM (inactive)
43.6 µM (inactive)
> 100 µM (inactive)

* * *

System: UO-31
Experiment: NCI tumour cell line growth inhibition, 48 h
Calls of active or inactive are those of the source. Rule as the data show it: active = GI50 up to about 1.1 µM and inactive = higher.
Result category, one only: yes (1) (active), no (0) (inactive)

Known results for molecules:
> print(dat)
                                   molecule  system.tested  label.value
1  CC(=O)c1ccc(NC(=O)C(=O)C(C(=O)/C=C/c2ccccc2)C2OC(=O)c3ccccc32)cc1 (stereo unspecified)          UO-31       no (0)
2  COc1cc(C=O)c(-c2cc3c(cc2C2(C)OCCS2)OCO3)c(OC)c1OC (stereo unspecified)          UO-31       no (0)
3      CCCC(CCC(=O)O)(CCC(=O)O)[N+](=O)[O-]          UO-31       no (0)
4                Cc1cc(/N=N/c2ccccc2C)ccc1N          UO-31       no (0)
5  C=C1C[C@]23CC[C@@H]4C(CO)(CO)CC(=O)C[C@]4(C)[C@@H]2C(O)C[C@H]1C3 (stereo partly specified)          UO-31       no (0)

input: State the result this test recorded for C=CC(=C)CCC(Br)C(C)(C)Br (stereo unspecified) .
output: no (0)

input: Moving on to the next molecule: O=[N+]([O-])c1ccc(-n2nnc(C3=NCCCN3)c2-c2ccc(Cl)cc2)cc1
output: no (0)

input: Moving on to the next molecule: Nc1ncnc2c1ncn2C1OC(CSCc2ccc(Cl)cc2)C(O)C1O (stereo unspecified)
output: no (0)

input: Moving on to the next molecule: O=C(/C=C1/Nc2ccc([N+](=O)[O-])cc2NC1O)c1cccc([N+](=O)[O-])c1 (stereo unspecified)
output: no (0)

input: Moving on to the next molecule: O=C1N[C@@H](O)[C@@H]2ON=C(c3ccccc3)[C@H]12
output: no (0)

input: Moving on to the next molecule: O=C(c1ccc(Cl)cc1)C1OC12C(=O)Nc1ccccc12 (stereo unspecified)
output: no (0)

input: Moving on to the next molecule: C/C(=N/NC(=S)Nc1cccc(Cl)c1)c1cccc(/C(C)=N\NC(=S)Nc2cccc(Cl)c2)n1
output: no (0)
